Experiment: MRP1 drug-resistance reversers in H69AR cells – cell-based, doxorubicin co-treatment, pilot screen (AID 601)
Conditions: H69AR cells, CellTiter-Glo, 72 h; compound alone cytotoxicity; at 10 µM
Criterion: viability strictly under 90%. Met: T. Not met: F.

Molecule	Category
CC(Oc1ccccc1)C(=O)NC1CC(C)(C)NC(C)(C)C1 (stereo not given)	F
Cc1cccc(C)c1OCc1nnc(SCC(=O)Nc2ccccc2F)o1	T
C/C=C/Cn1c(SCCCc2ccccc2)nc2c1c(=O)[nH]c(=O)n2C	T

API: query returns whether the molecule falls strictly under 90% in viability. Query: "CN(C)S(=O)(=O)c1ccc2c(c1)c(=O)c(C(=O)NCCCN1CCCCCC1)cn2C"
F

Quick check: does "CCOC(=O)c1ccc(N=c2sc(C(=O)OC)cc(=O)n2Cc2ccco2)cc1" have viability under 90%?
T

In plain terms, does "Cn1cc(Cl)c(C(=O)NC2CCCC2)n1" come in under 90% for viability?
F

Hello, I'm reviewing records and need to know if viability of "CCc1c(C)n([O-])c2c([n+]1=O)CCC2" is below 90%. Could you check?
F

Dear reviewer, please state whether "CC1(C)Cc2ccccc2C(N)=C1C#N" has viability strictly beneath 90%.
F

Does the reported viability of the following molecule sit strictly below 90%? "Cn1c(/C=N/n2cnnc2)nc2ccccc21"
T

Please state whether viability is below 90% for "Cc1nnc(SCC(=O)Nc2sc3c(c2C#N)CCCC3)[nH]c1=O"
F

* * *

Assay: S. cerevisiae growth inhibition in restrictive medium, OD615, pilot screen, restrictive growth control, yeast lifespan reduction project (AID 706);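 also: modified DeaD lifespan yeast strain shifted to restrictive glucose medium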
Conditions: OD615, 48 h, at 10 µM, stronger effect = higher value
Reported Metric: growth inhibition (%)
Answers are plain numbers, in %.

# map each compound to its growth inhibition
1. CCn1cc(C(=O)NCc2ccccc2OC)c(=O)c2cc(S(=O)(=O)N(C)C)ccc21
2. COc1cccc(C2CC(c3c(Cl)cccc3Cl)n3nc(N)nc3N2)c1 (stereo unspecified)
3. Cc1cc(C)nc(SCc2ccc3nonc3c2)n1
4. NC(=O)C1CCN(C(=O)c2cc3n(n2)C(C(F)(F)F)CC(c2ccco2)N3)CC1 (stereo unspecified)

-17.1
9.22
-6.27
-1.27

I have 2 compounds here; please give me growth inhibition for each one.
1. CCN(CC)c1ccc(NC(=O)c2nc3nc(C)cc(C(F)F)n3n2)cc1
2. COc1ccc(CCc2nc(-c3ccc(-n4cccc4)cc3)no2)cc1

1. -10.5
2. -25.5

* * *

Assay: HUVEC growth inhibition – cell-based, human, primary screen (AID 575);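 also: 100% = median of untreated cell wells with 0.1% DMSO on each plate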
Conditions: HUVEC proliferation, CellTiter-Glo luminescence, 72 h; at 10 µM; stronger effect = lower value
Active and inactive are the calls of the source.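 Rule for the calls: active = viability at or below 30% in both replicate assays; inconclusive = viability at or below 30% in just one of the two assays; inactive = the rest.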
I'd be grateful if you could share measured viability for these entries.

Compound	viability
Cc1ccc(-n2nc(C)c3cc(C(=O)O)sc32)cc1	70.7% (inactive)
CCN1C(=O)c2ccccc2S(=O)(=O)c2ccc(C(=O)NCc3cccnc3)cc21	85.6% (inactive)
CCN(CC)Cc1c(C(=O)OC)nnn1-c1nonc1N	99.6% (inactive)
O=c1oc2ccccc2cc1NCc1ccccc1O	79.2% (inactive)
Oc1ccccc1-c1nnc(COc2ccc(Cl)cc2Cl)o1	101% (inactive)
CCOCCCNC(=O)Cn1cc2c(n1)CCCCC2	109% (inactive)
CCCCn1c(CN2CCN(c3ccc(F)cc3)CC2)nc2c1c(=O)n(C)c(=O)n2C	66.9% (inactive)
COc1ccc(NC(=O)NCCN2C(=O)C3C4C=CC(C4)C3C2=O)cc1 (centres undefined)	100% (inactive)
CSCCC(N=CC1=C(O)CC(C)(C)CC1=O)C(=O)O (centres undefined)	99.4% (inactive)
Cc1ccnc(NC(=O)C2CCC(CNc3c(N4CCCC4)c(=O)c3=O)CC2)c1 (centres undefined)	92.2% (inactive)

Respectfully, I request viability for each entry included below.
1. O=C(C1CCCN(S(=O)(=O)c2cccnc2)C1)N1CCn2c1nc1ccccc12 (centres undefined)
2. COC(=O)c1cccc(NC(=O)C2COc3ccccc3O2)c1C (centres undefined)
3. COC(=O)CSC1=NS(=O)(=O)c2ccccc21
4. COc1ccc(N2CCN(C(=O)CSc3ccccc3)CC2)cc1
5. CCCN1CCN(C(=O)c2cn(CC(C)C)c(=O)c3cc(OC)c(OC)cc23)CC1
6. O=C(NC1CCCc2ccccc21)c1ccc(CNc2c(N3CCOCC3)c(=O)c2=O)cc1 (centres undefined)
7. Cc1cc(C)nc(/N=C2\NC(=O)CC(C(=O)O)N2c2ccc(Cl)cc2)n1 (centres undefined)

105% (inactive)
116% (inactive)
60% (inactive)
103% (inactive)
93.1% (inactive)
95.5% (inactive)
88.7% (inactive)

For every record below, what is its viability?
1. COc1ccc(/C=N/O)cc1COc1ccc(NC(C)=O)cc1
2. COc1cccc(C2CC(c3ccc(F)cc3)Nc3nc(N)nn32)c1 (centres undefined)
3. O=C(NCCN1C(=O)C2C3C=CC(C3)C2C1=O)N1CCCCC1 (centres undefined)
4. O=C1c2ccccc2C(Nc2ccc(-c3nc4ccccc4[nH]3)cc2)N1Cc1ccco1 (centres undefined)
5. COc1cc2c(cc1OC)C(C)N(C(=O)Cn1ncc3c1-c1ccccc1OC3)CC2 (centres undefined)
6. COc1cccc(-c2cc(C(=O)N3CCCCCC3)no2)c1
7. CCOC(=O)C1=C(C)N(C)C(=O)NC1c1cccc(O)c1 (centres undefined)

1. 102% (inactive)
2. 99.9% (inactive)
3. 100% (inactive)
4. 65.9% (inactive)
5. 111% (inactive)
6. 77.4% (inactive)
7. 90.1% (inactive)

* * *

Test: S. cerevisiae growth inhibition in permissive medium (OD615), pilot counter-assay for S. cerevisiae lifespan shortening project, permissive growth control (AID 705)
Details: OD615, 24 h, at 10 µM
Activity calls are given as the source filed them.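 Rule for the calls: active = growth inhibition above 25% in both replicates, a cutoff set 3 SD above the mean; inconclusive = above 25% in only one replicate; inactive = the rest.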
Pick from active, inactive when you respond.

Molecule	Category
O=C1CC(c2cccnc2)c2cc3c(cc2N1)OCO3 (stereo not drawn)	inactive
Cc1cc(Oc2ccccc2)nc2ccc(O)cc12	inactive
COc1ccc(S(=O)(=O)N2CCN(Cc3c[nH]c4ccccc34)CC2)cc1	inactive
COc1ccc(N2C(=O)C3CCCN3C2c2cccc(C)c2)cc1 (stereo not drawn)	inactive
COCCNC(=O)c1cc2c(=O)n3cccc(C)c3nc2n1C	inactive
CCN(CC)CCN1C(=O)c2oc3ccc(F)cc3c(=O)c2C1c1ccncc1 (stereo not drawn)	inactive

Pending molecule:
Per the records of this test, what outcome belongs to "CCOc1ccc(-c2nnc3sc(-c4c(OC)cccc4OC)nn23)cc1" ?
inactive

* * *

Test: growth suppression of yeast trafficking mutant, preliminary HTS, modulators of trafficking downstream of Golgi apparatus project, 1536-format plate, OD 615 nm (AID 637)
Settings: yeast transport mutant growth, absorbance 615 nm, 18 h; stronger effect = higher value
Please provide measured inhibition for the entries that follow.
Give bare numbers, in %.

Some solved entries appear below for comparison.
Molecule	Recorded Result
COc1cccc(C2=NOC(C(=O)N3CCc4ccccc4C3)C2)c1 (centres undefined)	-1.83
COc1cccc(CNC(=O)Cn2c(=O)oc3ccccc32)c1OC	-0.67
Cc1noc(/C=C/N(C)C)c1S(=O)(=O)N1CCCC(C(=O)NCCC2=CCCCC2)C1 (centres undefined)	-1.31

Turning to the following molecule.
# input molecule: "Cn1c(=O)c2c(nc3sccn32)n(C)c1=O" ; wanted: its inhibition
-4.1

* * *

Test: RAM pathway blockade in budding yeast – dse1pr::URA3 reporter, 5-FOA selection, pilot screen (AID 869);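 also: 0% = DMSO wells with no growth and 100% = 10 µM 1-NA-PP1 with full growth; RAM network block rescues cells from 5-FOA so hits raise OD615 growth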
Settings: S. cerevisiae dse1pr::URA3 5-FOA growth, OD615, 2 d; at 10 µM; stronger effect = higher value; strain carries analog-sensitive mutant Cbk1 kinase
Reported Metric: inhibition (%)
Numbers only, in %.

Compound	inhibition [%]
COc1ccc(N(CC(=O)Nc2cccc(SC)c2)S(C)(=O)=O)cc1Cl	0.975
COc1cc(C(=O)NCCc2ccc3c(c2)OCCO3)ccc1OCC(=O)N1CCOCC1	1.68
O=C(Nc1nc2c(s1)COc1ccccc1-2)c1cccs1	1.43
CCN(CC)S(=O)(=O)c1cc(C(=O)Oc2ccccc2OC)ccc1OC	1.38
C(=N\n1cnnc1)/c1cccc(OCCOc2ccccc2)c1	1.81
CCn1c(CCNC(=O)c2ccc(OC)c(OC)c2)nc2ccccc21	1.87
COc1ccc(-c2nc(C(N)=O)c3[nH]c(=O)n(-c4ccccc4OC)c3n2)c(OC)c1	0.63
CC(=O)c1cccc(NC(=O)Nc2cc3sccc3n2C)c1	0.69

Now examine the next entry.
Given the compound CCOCCCNC(=O)C(c1ccc(C)cc1)N(Cc1ccc2c(c1)OCO2)C(=O)CNC(C)=O (centres undefined) , what is its reported inhibition?
0.88

* * *

I'd be grateful if you could share measured RAM network inhibition for these entries.
Assay: RAM signaling pathway blockade in yeast – S. cerevisiae, Pdr1DBD-CYC8 efflux-inhibited sensitized strain, primary screen (AID 1298);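 also: 0% = DMSO untreated cells without growth and 100% = 10 µM 1-NA-PP1 full growth; higher means more yeast growth rescued from 5-FOA killing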
Conditions: S. cerevisiae cbk1-as DSE1-URA3 strain, 5-FOA growth OD615, 2 d; at 50 µM; stronger effect = higher value
Answers are plain numbers, in %.

Some compounds with recorded RAM network inhibition:
Compound	RAM network inhibition (%)
O=C(CN1CCOc2ccccc21)NCc1ccco1	0.05
O=C(CC1NC(=O)NC1=O)NC1(C(=O)NC2CCCCC2)CCCCC1 (stereo not given)	-0.62
O=C(NCCc1ccccc1)C1CCN(C(=O)c2sccc2-n2cccc2)CC1	4
CCOc1ccc(-c2nnc(SCC(=O)N3CCN(c4ccccc4)CC3)o2)cc1	3.72
CC(C)(C)SCCNC(=O)CSc1ccccc1	4.54

Could you report RAM network inhibition for every entry in the following list?
1. Cc1nnc(NC(=O)CSc2nnc(Cc3cccn3C)n2-c2cccc(C)c2C)s1
2. O=C(O)CN1C(=O)C2C3C=CC(C3)C2C1=O (stereo not given)
3. CC(NC(=O)C1CCC(=O)N1Cc1ccc(F)cc1)c1ccc2c(c1)OCCO2 (stereo not given)

1: -0.2; 2: 2.2; 3: 4.36
